# target.or.test.system: human RXFP1 (Homo sapiens)
# Construct: expressed in transfected cells
# Sequence (Q9HBX9 1-757): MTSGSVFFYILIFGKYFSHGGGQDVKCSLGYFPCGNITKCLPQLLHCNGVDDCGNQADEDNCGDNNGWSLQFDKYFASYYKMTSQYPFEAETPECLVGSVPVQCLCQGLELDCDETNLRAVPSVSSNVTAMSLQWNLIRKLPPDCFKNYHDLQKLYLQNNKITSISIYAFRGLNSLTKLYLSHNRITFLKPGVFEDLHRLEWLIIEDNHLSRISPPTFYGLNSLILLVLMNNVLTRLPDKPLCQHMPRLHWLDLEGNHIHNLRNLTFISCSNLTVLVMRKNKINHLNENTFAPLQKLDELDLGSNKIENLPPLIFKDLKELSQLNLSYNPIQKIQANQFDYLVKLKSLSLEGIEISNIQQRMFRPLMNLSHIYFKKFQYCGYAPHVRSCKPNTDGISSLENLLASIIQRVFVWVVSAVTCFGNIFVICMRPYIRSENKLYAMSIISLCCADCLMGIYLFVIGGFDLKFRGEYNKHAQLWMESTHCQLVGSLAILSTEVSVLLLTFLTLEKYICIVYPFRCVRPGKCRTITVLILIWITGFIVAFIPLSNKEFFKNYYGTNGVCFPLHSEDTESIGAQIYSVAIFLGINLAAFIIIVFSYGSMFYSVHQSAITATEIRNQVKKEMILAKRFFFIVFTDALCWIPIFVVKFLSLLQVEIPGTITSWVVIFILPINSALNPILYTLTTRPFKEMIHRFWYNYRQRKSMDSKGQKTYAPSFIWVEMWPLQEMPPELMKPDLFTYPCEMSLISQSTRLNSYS
# assay: hRXFP1 HEK293 cAMP assay (HTRF)
# Type: cell-based
# assay.conditions: HEK293 cells stably expressing human RXFP1, 30 min at room temperature
measured.metric: EC50 (µM)

{"molecule": "COc1ccc(/C=C/C(=O)O)cc1C(=O)N[C@H]1[C@@H](C(=O)Nc2ccc(F)c(C(F)(F)F)c2)[C@H]2CC[C@@H]1/C2=C\\C(F)(F)F", "observed.value": 0.309}

a. COc1ccc(CCCNC(=O)C2CCC2)cc1C(=O)N[C@@H]1C2CCC(/C2=C/C(F)(F)F)[C@@H]1C(=O)Nc1ccc(F)c(C(F)(F)F)c1 (stereo partly drawn)
b. COc1ccc(C2CC2C(=O)N2CCC(O)CC2)cc1C(=O)N[C@H]1[C@@H](C(=O)Nc2ccc(F)c(C(F)(F)F)c2)[C@H]2CC[C@@H]1/C2=C\C(F)(F)F (single isomer, unassigned) [Example 325]
query: Could you kindly indicate whether a or b has the higher EC50 value? Mark your answer with the label of the selected entry.
result: b
